FYI, the data here is from PubChem BioAssay (NCI).

Tested on: OVCAR-8 ovarian
Assay: NCI tumour cell line growth inhibition, 48 h
Listed below: TGI values for each entry.

>  <Compound>
CC(=N\N)/C(C)=N/N=C(C)/C(C)=N/N

>  <Meas value>
> 100 µM

$$$$
>  <Compound>
O=S(=O)(Nc1nc2ccccc2nc1Nc1ccc2ccccc2c1)c1ccccc1

>  <Meas value>
> 100 µM

$$$$
>  <Compound>
COc1ccc2nc(-c3ccccc3)cc(OCC(=O)O)c2c1

>  <Meas value>
> 100 µM

$$$$
>  <Compound>
COc1ccc2cc(/C=C/C(=O)c3ccc(Cl)cc3Cl)ccc2c1

>  <Meas value>
75.4 µM

$$$$
>  <Compound>
FC(F)(c1ccc2ncccc2c1)c1nnc2ccc(-c3ccncc3)nn12

>  <Meas value>
> 100 µM

$$$$

# TGI (compound: C#Cc1cccc(N2C(=O)c3c(c(-c4ccccc4)c(-c4ccc(Cc5ccc(-c6c(-c7ccccc7)c7c(c(-c8ccccc8)c6-c6ccccc6)C(=O)N(c6cccc(C#C)c6)C7=O)cc5)cc4)c(-c4ccccc4)c3-c3ccccc3)C2=O)c1 ) is > 100 µM

# TGI (compound: Cn1c(-c2c(N)n(Nc3cccc(Cl)c3)c3nc(C#N)c(C#N)nc23)nc2ccccc21 ) is 26.4 µM

# TGI (compound: C=CCC1CC(n2cc(C)c(=O)[nH]c2=O)OC1CO[Si](C)(C)C(C)(C)C (centres undefined) ) is 28.5 µM

# TGI (compound: COc1ccc(-n2c(N)c(C#N)[nH]c2=O)cc1 ) is > 10 µM

====

Test system: SR leukemia
Assay: NCI tumour cell line growth inhibition, 48 h
Record Yes whenever TGI is at 20 µM or higher; record No when lower.

>  <Molecule>
NS(=O)(=O)c1ccc(-n2nc3c(c2-c2ccc(Cl)cc2)Cc2ccccc2-3)cc1

>  <Answer label>
Yes

$$$$
>  <Molecule>
CC[C@@]1(O)C(=O)OCc2c1cc1n(c2=O)Cc2c-1nc1ccccc1c2/C=N\NC(=O)C1CCCN1 (stereo partly drawn)

>  <Answer label>
No

$$$$
>  <Molecule>
Cn1c(-c2c(N)n(Nc3cccc(Cl)c3)c3nc(C#N)c(C#N)nc23)nc2ccccc21

>  <Answer label>
Yes

$$$$

Check if TGI >= 20 µM (inclusive). Item: N#CN/C(N)=N/C/N=C(\N)NC#N Yes

Check if TGI >= 20 µM (inclusive). Item: COc1ccc(NC(=O)CSC2=C(Nc3cccc(Br)c3)C(=O)N(Cc3ccccc3)C2=O)cc1Cl Yes

Check if TGI >= 20 µM (inclusive). Item: O=C1CC2C(=O)c3ccccc3CC2c2ccccc21 (stereo not drawn) Yes

Check if TGI >= 20 µM (inclusive). Item: CCc1ccc(NC(=O)NC(=O)c2ccccc2[N+](=O)[O-])cc1Oc1ncc(Cl)cn1 Yes

Check if TGI >= 20 µM (inclusive). Item: CCOC(=O)C1=C(O)C2C3CC4C2C(O)=C(C(=O)OCC)C2C1C3C42 (stereo not drawn) Yes

Check if TGI >= 20 µM (inclusive). Item: Nc1ccccc1C#C/C=C\C#Cc1ccc(OCCCNC(=O)c2cc3ccccc3[nH]2)cc1 Yes

====

System: DU-145 prostate
Experiment: NCI tumour cell line growth inhibition, 48 h
Metric: TGI

>  <Compound>
CCN1CCC(O)(c2ccc(Oc3ccc(F)cc3)cc2)C(C(=O)c2ccc(Oc3ccc(F)cc3)cc2)C1 (configuration not stated)

>  <Meas value>
24.7 µM

$$$$
>  <Compound>
O=C(NCCN1CCOCC1)c1cn2c(ccc3sc4ccccc4c(=O)c32)n1

>  <Meas value>
> 100 µM

$$$$

# TGI (compound: CCOC(=O)Nc1nc2ccc(OC)cc2s1 ) is > 100 µM

# TGI (compound: CCP(=O)(CC)C(Cl)Cl ) is > 100 µM

# TGI (compound: Cc1ccc(NC=O)c(-c2c(N)[nH]c(=S)[nH]c2=O)c1 ) is > 100 µM

# TGI (compound: OCc1ccc(N2CCc3cccc(F)c3C2)cc1Cl ) is 30.3 µM

# TGI (compound: O=S(=O)(NC1=NCCN1C(=S)SN1CCn2c1nsc2=S)c1cccc2ccccc12 ) is 49.2 µM

# TGI (compound: [O-][N+](=Nc1ccccc1CO)c1ccccc1CO ) is > 100 µM

# TGI (compound: O=C1/C(=C\c2cccc(Oc3ccccc3)c2)SC(c2ccccc2)N1c1ccccc1 (configuration not stated) ) is > 100 µM

# TGI (compound: O=CNNC(=O)Nc1cccc2ccccc12 ) is > 100 µM

# TGI (compound: Nc1nonc1-c1nc2cnccc2n1C1CC1 ) is > 25 µM

# TGI (compound: O=C(/C=C/c1cccc(Oc2ccccc2)c1)NCc1ccc(C(=O)NCc2ccccc2)cc1 ) is > 100 µM

====

System: NCI-H226 lung
Assay: NCI tumour cell line growth inhibition, 48 h
Metric: TGI (µM)
Hi! Could you send only the number? It should be in µM, unit omitted.

>  <Substance smiles>
CCNc1cc(-c2cccc(OC(F)(F)F)c2)nc2ccc(N3CCCC3)cc12

>  <Metric>
TGI

>  <Meas value>
4.53

$$$$

# TGI (molecule: CCC[CH2][Sn]([Cl])([Cl])[CH2]CCC ) is 5.01

====

Listed below: TGI values for each entry.
Test system: OVCAR-4 ovarian
Experiment: NCI tumour cell line growth inhibition, 48 h

Examples with answers:
>  <Compound>
OC1(c2ccc(-c3ccccc3)cc2)c2ccccc2C2=NCCN21 (stereo not drawn)

>  <TGI>
> 100 µM

$$$$
>  <Compound>
CC(C)(C)OC(=O)NC1CC2(C=C(Br)C(=O)C(Br)=C2)OC1=O (stereo not drawn)

>  <TGI>
24.1 µM

$$$$
>  <Compound>
Cc1cc2/c(=C\c3ccc(N(C)C)cc3)c3ccccc3n2[n+]1C

>  <TGI>
10.3 µM

$$$$
>  <Compound>
c1ccc2c(c1)c1c(n2CCOCCN2CCCC2)CCCC1

>  <TGI>
73.8 µM

$$$$
>  <Compound>
Cc1nc(CC#N)n[nH]1

>  <TGI>
> 100 µM

$$$$
>  <Compound>
CCc1ccc(NC(=O)NC(=O)c2ccccc2[N+](=O)[O-])cc1Oc1ncc(Cl)cn1

>  <TGI>
> 100 µM

$$$$
>  <Compound>
CC1=C(C(=O)CC(=O)C(=O)Nc2cc(C)ccc2C)Sc2ccccc2N1

>  <TGI>
> 100 µM

$$$$
>  <Compound>
O=C1c2cc(Cl)ccc2NC(=NC2CCCC2)C2CSCN12 (stereo not drawn)

>  <TGI>
> 100 µM

$$$$
>  <Compound>
COc1ccc(NC(=O)CC2SC(=Nc3ccccc3C)NC2=O)c([N+](=O)[O-])c1 (stereo not drawn)

>  <TGI>
> 100 µM

$$$$
>  <Compound>
C/C=C(/I)CBr

>  <TGI>
49.3 µM

$$$$

# TGI (compound: COc1cc2c(c(OC)c1OC)-c1ncc3c(OC)c(OC)c(OC)cc3c1C2 ) is > 100 µM

# TGI (compound: O=C(O)Cc1ccc(Nc2nc3cc(C(F)(F)F)ccc3nc2C(=O)O)cc1 ) is > 100 µM

# TGI (compound: CCC1CC2C(=O)N(c3ccccc3)C(=O)C2c2[nH]c3ccccc3c21 (stereo not drawn) ) is 25.6 µM

====

Test system: T-47D breast
Assay: NCI tumour cell line growth inhibition, 48 h
Listed below: TGI values for each entry.

>  <Compound>
Cc1ccc(SC2C(=O)C3CC(OCc4ccccc4)C2(C)C3(C)C)cc1 (stereo unspecified)

>  <TGI>
> 100 µM

$$$$

# TGI (compound: c1ccc2c(c1)c1c(n2CCOCCN2CCCC2)CCCC1 ) is 61.9 µM

# TGI (compound: c1cc2c(s1)-c1sccc1C21OCCO1 ) is 80.9 µM

# TGI (compound: CO/N=C(/C)c1cccc(Nc2nc3ccccc3c3[nH]c4ccccc4c23)c1 ) is 6.9 µM

# TGI (compound: OC1(c2ccc(-c3ccccc3)cc2)c2ccccc2C2=NCCN21 (stereo unspecified) ) is > 100 µM

====

Tested on: UACC-62 melanoma
Assay: NCI tumour cell line growth inhibition, 48 h
Metric: TGI

>  <Molecule>
Nc1nonc1-c1nc2cnccc2n1C1CC1

>  <Test target>
UACC-62 melanoma

>  <TGI>
> 25 µM

$$$$
>  <Molecule>
CC(=O)Oc1ccc(C23c4ccccc4C2(OC(C)=O)c2cc(OC(C)=O)ccc23)cc1 (stereo unspecified)

>  <Test target>
UACC-62 melanoma

>  <TGI>
13.7 µM

$$$$
>  <Molecule>
CN1C/C(=C\c2cccs2)C(O)/C(=C/c2cccs2)C1 (stereo unspecified)

>  <Test target>
UACC-62 melanoma

>  <TGI>
> 100 µM

$$$$
>  <Molecule>
Cc1nc(CC#N)n[nH]1

>  <Test target>
UACC-62 melanoma

>  <TGI>
> 100 µM

$$$$
>  <Molecule>
O=S(=O)(Nc1nc2ccccc2nc1Nc1ccc2ccccc2c1)c1ccccc1

>  <Test target>
UACC-62 melanoma

>  <TGI>
43.8 µM

$$$$

Note: attention shifts to another entry.
# TGI (molecule: COC(=O)C1Cc2cc3c(cc2C1=O)CCCC3 (stereo unspecified) ) is > 100 µM
